Species on record: Rattus norvegicus
Format: toxicity, organism-based, Sprague-Dawley
STATED CONDITIONS: in vivo, po, 0 mg/kg, 24 h, vehicle control, tissue Blood, route oral GAVAGE, dose level Control, time 1 day, […]
Description: DrugMatrix - Regimen: Single
I'd appreciate it if you could supply ABSOLUTE MONOCYTE values for the items below.

Below, 2 compounds whose answers are already recorded.
In [3]: df
Out[3]:
                                   compound  experimental_result
0                            Clc1ccc(Cl)cc1         140 cells/µL
1  CCOC(=O)C(C)(C)Oc1ccc(Cl)cc1 [CLOFIBRATE]         220 CELLS/uL

Entry S=C=Nc1cccc2ccccc12 [1-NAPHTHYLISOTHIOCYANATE] — recorded ABSOLUTE MONOCYTE = 98.5 CELLS/uL
